# study-system: TYK2 (Homo sapiens, UniProt P29597)
# Sequence (P29597 whole entry): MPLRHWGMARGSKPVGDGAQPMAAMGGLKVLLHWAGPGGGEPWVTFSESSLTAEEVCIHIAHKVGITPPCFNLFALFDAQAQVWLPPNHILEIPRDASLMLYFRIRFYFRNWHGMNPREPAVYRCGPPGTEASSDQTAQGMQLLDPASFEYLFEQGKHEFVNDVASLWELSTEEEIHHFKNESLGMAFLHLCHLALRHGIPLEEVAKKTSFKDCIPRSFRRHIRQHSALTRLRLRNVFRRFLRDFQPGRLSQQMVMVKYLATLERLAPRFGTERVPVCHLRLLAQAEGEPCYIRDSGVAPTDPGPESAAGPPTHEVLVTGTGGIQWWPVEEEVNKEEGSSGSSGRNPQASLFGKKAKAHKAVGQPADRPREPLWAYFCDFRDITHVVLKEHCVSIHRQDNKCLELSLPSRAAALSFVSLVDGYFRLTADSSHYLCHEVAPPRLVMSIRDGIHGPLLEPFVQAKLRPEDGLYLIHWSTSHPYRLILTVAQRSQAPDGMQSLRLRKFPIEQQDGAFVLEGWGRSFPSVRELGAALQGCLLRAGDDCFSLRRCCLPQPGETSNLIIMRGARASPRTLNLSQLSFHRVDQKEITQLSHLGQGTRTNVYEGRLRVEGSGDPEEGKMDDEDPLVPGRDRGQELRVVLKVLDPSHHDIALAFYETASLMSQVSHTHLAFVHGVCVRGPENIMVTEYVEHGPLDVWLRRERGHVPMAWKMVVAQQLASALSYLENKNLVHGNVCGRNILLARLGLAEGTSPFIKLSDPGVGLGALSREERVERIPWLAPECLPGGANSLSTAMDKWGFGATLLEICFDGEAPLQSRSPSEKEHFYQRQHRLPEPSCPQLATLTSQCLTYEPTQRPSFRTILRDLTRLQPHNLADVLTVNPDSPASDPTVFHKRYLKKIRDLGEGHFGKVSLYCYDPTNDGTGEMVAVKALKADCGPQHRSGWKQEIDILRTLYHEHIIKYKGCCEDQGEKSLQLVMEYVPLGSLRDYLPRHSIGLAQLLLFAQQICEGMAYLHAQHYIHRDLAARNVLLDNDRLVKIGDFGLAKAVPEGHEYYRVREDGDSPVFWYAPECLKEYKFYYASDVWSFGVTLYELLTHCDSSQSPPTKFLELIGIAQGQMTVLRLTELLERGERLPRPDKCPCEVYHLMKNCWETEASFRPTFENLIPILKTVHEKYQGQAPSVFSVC
# measurement-protocol: TYK2 degradation MSD assay in human PBMC cells
# Type: cell-based
# Parameters: endogenous in cells; host or cells: human PBMC
# study-conditions: 4 to 24 hours incubation, read-out: TYK2 MSD DC50 rating in human PBMC
In this section, each of the compounds is paired with its reported DC50.

compound	study-system	DC50
CNc1cc(Nc2cccn(-c3ccc(C(=O)NCCOCCOCCOCCOCCOCCOCCc4ccc5c(c4)n(C)c(=O)n5C4CCC(=O)NC4=O)cn3)c2=O)nn2c(C(=O)N[C@@H]3C[C@@H]3F)cnc12 (stereo partly drawn) [Example K215]	TYK2 (Homo sapiens, UniProt P29597)	10 to 100 nM

Specify DC50 for Cc1cc(Nc2cccc(-c3ccc(CN4CCN(c5ccc(-c6ccc7c(c6)n(C)c(=O)n7C6CCC(=O)NC6=O)cc5)CC4)cn3)c2)nn2c(C(=O)N[C@@H]3C[C@@H]3F)cnc12 (stereo partly drawn) [Example K502] and stop. > 100 nM

Specify DC50 for Cn1c(=O)n(C2CCC(=O)NC2=O)c2ccc(C3CCN(CCCNc4cc(Nc5cccn(-c6ccccn6)c5=O)nn5c(C(=O)N[C@@H]6C[C@@H]6F)cnc45)CC3)cc21 (stereo partly drawn) [Example K366] and stop. > 100 nM
